Tested on: Receptor-type tyrosine-protein kinase FLT3 (Homo sapiens), P36888 [UNDEFINED MUTATION]
Sequence (P36888 whole entry, looked up, change not shown): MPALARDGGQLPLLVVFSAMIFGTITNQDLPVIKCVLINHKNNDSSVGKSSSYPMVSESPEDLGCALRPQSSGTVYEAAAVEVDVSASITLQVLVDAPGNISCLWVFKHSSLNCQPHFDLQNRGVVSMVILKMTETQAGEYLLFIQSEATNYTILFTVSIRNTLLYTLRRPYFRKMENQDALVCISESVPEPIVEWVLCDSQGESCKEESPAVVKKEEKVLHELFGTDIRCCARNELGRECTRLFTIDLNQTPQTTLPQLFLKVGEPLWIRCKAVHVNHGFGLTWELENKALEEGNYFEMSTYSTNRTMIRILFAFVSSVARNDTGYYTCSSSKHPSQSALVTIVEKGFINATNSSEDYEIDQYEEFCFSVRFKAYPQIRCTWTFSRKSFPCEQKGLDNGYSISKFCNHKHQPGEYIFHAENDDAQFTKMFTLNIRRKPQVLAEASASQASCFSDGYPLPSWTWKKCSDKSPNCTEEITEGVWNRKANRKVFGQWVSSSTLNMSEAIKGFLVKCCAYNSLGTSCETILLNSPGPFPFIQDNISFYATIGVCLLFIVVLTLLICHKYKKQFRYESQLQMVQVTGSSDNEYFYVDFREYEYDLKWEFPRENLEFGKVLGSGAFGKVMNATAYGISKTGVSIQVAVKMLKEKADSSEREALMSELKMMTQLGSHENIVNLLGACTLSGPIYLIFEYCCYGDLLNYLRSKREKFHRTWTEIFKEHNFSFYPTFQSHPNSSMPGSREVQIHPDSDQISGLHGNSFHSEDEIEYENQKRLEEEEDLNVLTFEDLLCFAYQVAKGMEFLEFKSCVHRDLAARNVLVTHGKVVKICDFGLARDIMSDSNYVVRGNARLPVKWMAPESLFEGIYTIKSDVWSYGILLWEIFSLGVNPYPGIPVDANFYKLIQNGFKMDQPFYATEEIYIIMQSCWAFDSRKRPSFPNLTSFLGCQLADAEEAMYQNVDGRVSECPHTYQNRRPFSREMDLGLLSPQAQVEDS
Details: MV4-11
Description: Inhibition of FLT3 ITD mutant expressed in human MV4-11 cells assessed as reduction in cell growth incubated for 72 hrs by CCK8 assay
Measured GI50 values are reported for all entries that follow.
Please respond with the number in nM and leave the unit unwritten.

>  <QUERY_SMILES>
CC(C)(C)c1cc(NC(=O)Nc2ccc(-c3cn(-c4ccc(OCCN5CCOCC5)cc4Br)nn3)cc2)no1

>  <EXPERIMENTAL_SYSTEM>
Receptor-type tyrosine-protein kinase FLT3 (Homo sapiens), P36888 [UNDEFINED MUTATION]

>  <RESULT_UNITS>
nM

>  <VALUE_MEASURED>
5.7

$$$$
>  <QUERY_SMILES>
CC(C)(C)c1cc(NC(=O)Nc2ccc(-c3cn(-c4ccc(OCCN5CCOCC5)cc4C(F)(F)F)nn3)cc2)no1

>  <EXPERIMENTAL_SYSTEM>
Receptor-type tyrosine-protein kinase FLT3 (Homo sapiens), P36888 [UNDEFINED MUTATION]

>  <RESULT_UNITS>
nM

>  <VALUE_MEASURED>
58.6

$$$$
>  <QUERY_SMILES>
CC(C)(C)c1cc(NC(=O)Nc2ccc(-c3cn(-c4ccc(OCCN5CCOCC5)cc4)nn3)cc2Cl)no1

>  <EXPERIMENTAL_SYSTEM>
Receptor-type tyrosine-protein kinase FLT3 (Homo sapiens), P36888 [UNDEFINED MUTATION]

>  <RESULT_UNITS>
nM

>  <VALUE_MEASURED>
498

$$$$
>  <QUERY_SMILES>
CC(C)(C)c1cc(NC(=O)Nc2ccc(-c3cn(-c4ccc(OCCN5CCOCC5)cc4Cl)nn3)cc2)no1

>  <EXPERIMENTAL_SYSTEM>
Receptor-type tyrosine-protein kinase FLT3 (Homo sapiens), P36888 [UNDEFINED MUTATION]

>  <RESULT_UNITS>
nM

>  <VALUE_MEASURED>
3

$$$$
>  <QUERY_SMILES>
COc1cc(-c2cn(-c3ccc(OCCN4CCOCC4)cc3)nn2)ccc1NC(=O)Nc1cc(C(C)(C)C)on1

>  <EXPERIMENTAL_SYSTEM>
Receptor-type tyrosine-protein kinase FLT3 (Homo sapiens), P36888 [UNDEFINED MUTATION]

>  <RESULT_UNITS>
nM

>  <VALUE_MEASURED>
1220

$$$$

The recorded GI50 for CC(C)(C)c1cc(NC(=O)Nc2ccc(-c3cn(-c4ccc(OCCN5CCCCC5)cc4Cl)nn3)cc2)no1 is 5.6

The recorded GI50 for CC(C)(C)c1cc(NC(=O)Nc2ccc(-c3cn(-c4ccc(OCCN5CCOCC5)cc4)nn3)c(Cl)c2)no1 is 12

The recorded GI50 for Cc1cc(-n2cc(-c3ccc(NC(=O)Nc4cc(C(C)(C)C)on4)cc3)nn2)ccc1OCCN1CCOCC1 is 7.1

Taken from ChEMBL document CHEMBL4619814.
